# System: PC-3
# measurement.protocol: Cytotoxicity against telomerase-positive human PC-3 cells assessed as inhibition of cell growth incubated for 48 hrs by MTT assay
# Type: functional, cell-based
# stated.conditions: PC-3, 48 h
observed.property: IC50 (µM)
Give bare numbers, in µM.

For orientation, consider the following solved cases.
> print(dat)
                        structure.as.smiles  readout.value
1  C[n+]1c(/C=C/c2c[nH]c3ccccc23)cc(/C=C2\Sc3ccccc3N2CCCN2CCCCC2)c2ccccc21            3.8
2  C[n+]1c(/C=C/c2c[nH]c3ccccc23)cc(/C=C2\Sc3ccccc3N2CCCN2CCOCC2)c2ccccc21            4.7
3  CCN(CC)CCCN1/C(=C/c2cc(/C=C/c3cc4ccccc4[nH]3)[n+](C)c3ccccc23)Sc2ccccc21            3.1

Enquiry: # IC50 lookup, item `CC1CCN(CCCN2/C(=C/c3cc(/C=C/c4cc5ccccc5[nH]4)[n+](C)c4ccccc34)Sc3ccccc32)CC1`
Return: 2.5

###

# target.entity: Quadruplex DNA
# measurement.protocol: Binding affinity to Telo21 G4 DNA (unknown origin) assessed as dissociation constant by ITC analysis
# Type: nucleic-acid assay
observed.property: pKd
Answers are plain numbers, as −log10 of the molar value.

Enquiry: # pKd lookup, item `C[n+]1c(/C=C/c2c[nH]c3ccccc23)cc(/C=C2\Sc3ccccc3N2CCCN2CCC(C(F)(F)F)CC2)c2ccccc21.[I-]`
Return: 5.48

###

# target.entity: Quadruplex DNA
# measurement.protocol: Binding affinity to hTERT G4 DNA assessed as dissociation constant by ITC analysis
# Format: nucleic-acid assay, Homo sapiens
observed.property: pKd
Answers are plain numbers, as −log10 of the molar value.

Enquiry: # pKd lookup, item `C[n+]1c(/C=C/c2c[nH]c3ccccc23)cc(/C=C2\Sc3ccccc3N2CCCN2CCC(C(F)(F)F)CC2)c2ccccc21.[I-]`
Return: 5.94

###

# measurement.protocol: Cytotoxicity against HUVEC cells assessed as inhibition of cell growth incubated for 48 hrs by MTT assay
# Assay type: toxicity, cell-based
# stated.conditions: human
Task for the reader: assign each of the following compounds its reported IC50 at 48 h.
Give bare numbers, in µM.

For orientation, consider the following solved cases.
> print(dat)
                        structure.as.smiles  observed.property  readout.value
1  C[n+]1c(/C=C/c2cc3ccccc3[nH]2)cc(/C=C2\Sc3ccccc3N2CCCN2CCC(C(F)(F)F)CC2)c2ccccc21       IC50 at 48 h             12
2  C[n+]1c(/C=C/c2c[nH]c3ccccc23)cc(/C=C2\Sc3ccccc3N2CCCN2CCOCC2)c2ccccc21       IC50 at 48 h           16.5
3  C[n+]1c(/C=C/c2cc3ccccc3[nH]2)cc(/C=C2\Sc3ccccc3N2CCCN2CCCCC2)c2ccccc21       IC50 at 48 h            9.4
4  CC1CCN(CCCN2/C(=C/c3cc(/C=C/c4c[nH]c5ccccc45)[n+](C)c4ccccc34)Sc3ccccc32)CC1       IC50 at 48 h              6
5  CCN(CC)CCCN1/C(=C/c2cc(/C=C/c3cc4ccccc4[nH]3)[n+](C)c3ccccc23)Sc2ccccc21       IC50 at 48 h           11.9

Each compound below has a reported value. Please supply its IC50 at 48 h.
1. C[n+]1c(/C=C/c2cc3ccccc3[nH]2)cc(/C=C2\Sc3ccccc3N2CCCN2CCOCC2)c2ccccc21
2. C[n+]1c(/C=C/c2c[nH]c3ccccc23)cc(/C=C2\Sc3ccccc3N2CCCN2CCC(C(F)(F)F)CC2)c2ccccc21.[I-]
3. CCN(CC)CCCN1/C(=C/c2cc(/C=C/c3c[nH]c4ccccc34)[n+](C)c3ccccc23)Sc2ccccc21
4. CC1CCN(CCCN2/C(=C/c3cc(/C=C/c4cc5ccccc5[nH]4)[n+](C)c4ccccc34)Sc3ccccc32)CC1
5. C[n+]1c(/C=C/c2c[nH]c3ccccc23)cc(/C=C2\Sc3ccccc3N2CCCN2CCCCC2)c2ccccc21

Return:
1. 16.6
2. 8.7
3. 14.5
4. 8
5. 11.9
